Data origin, for the record: BigSolDB 2.1

Conditions: in n-octanol, 313.15 K
valueKind: solubility (mole fraction)

Example entries begin here.
solubility (mole fraction) for "COc1ccc(-c2coc3cc(O)ccc3c2=O)cc1" ? 0.00069

Which solubility (mole fraction) value belongs to "O=c1c(O)c(-c2ccc(O)cc2)oc2cc(O)cc(O)c12" ? 0.0103

Suppose we examine the compound "O=c1c(O)c(-c2ccc(O)cc2O)oc2cc(O)cc(O)c12" ; what solubility (mole fraction) value has been reported? 0.00265

Look up solubility (mole fraction) for this compound: "O=c1c(O)c(-c2ccc(O)c(O)c2)oc2cc(O)cc(O)c12" 0.00747

Returns the measured solubility (mole fraction) for the input compound. Input: "O=c1cc(-c2ccc(O)c(O)c2)oc2cc(O)cc(O)c12" 0.00025

1: O=c1cc(-c2ccc(O)cc2)oc2cc(O)cc(O)c12
2: O=C1C[C@@H](c2ccc(O)cc2)Oc2cc(O)cc(O)c21
# query: argmin of solubility (mole fraction) over 1 and 2 Lab note: record the label of whichever item you select. 1
(1: 0.00094, 2: 0.0109)

1: O=C1c2c(O)cc(O)cc2OC(c2ccc(O)c(O)c2)C1O (stereo not given)
2: COc1ccc(C2CC(=O)c3c(O)cc(O)cc3O2)cc1O (stereo not given)
I'd appreciate it if you could identify which of 1 and 2 has the greater solubility (mole fraction). Respond using the label that marks the chosen record. 1
(1: 0.0176, 2: 0.00379)
